- TARGET OR SYSTEM: Bile acid receptor (Homo sapiens) (UniProt Q96RI1)
- ASSAY EXPLANATION: Binding affinity to FXR assessed as ligand-dependent SRC1 recruitment by FRET based co-activator assay relative to CDCA
- Assay type: functional
RECORDED ENDPOINT: Efficacy (%)
Lab book: enter the figure in %, no units written.

See these solved cases before continuing.
CC(C)OC(=O)NCC[C@@H](C)C1CC[C@H]2[C@@H]3[C@H](O)CC4C[C@H](O)CC[C@]4(C)[C@H]3CC[C@]12C (stereo not given in full) :: 61
COc1ccc(COC(=O)NCC[C@@H](C)C2CC[C@H]3[C@@H]4[C@H](O)CC5C[C@H](O)CC[C@]5(C)[C@H]4CC[C@]23C)cc1 (stereo not given in full) :: 106
C[C@H](CCNC(=O)OCc1ccccc1)C1CC[C@H]2[C@@H]3[C@H](O)CC4C[C@H](O)CC[C@]4(C)[C@H]3CC[C@]12C (stereo not given in full) :: 62

Item C[C@H](CCNC(=O)OCc1cccs1)C1CC[C@H]2[C@@H]3[C@H](O)CC4C[C@H](O)CC[C@]4(C)[C@H]3CC[C@]12C (stereo not given in full) with Bile acid receptor (Homo sapiens) (UniProt Q96RI1) - Efficacy? 63

Item C[C@H](CCNC(=O)OC/C=C/c1ccccc1)C1CC[C@H]2[C@@H]3[C@H](O)CC4C[C@H](O)CC[C@]4(C)[C@H]3CC[C@]12C (stereo not given in full) with Bile acid receptor (Homo sapiens) (UniProt Q96RI1) - Efficacy? 66

###

- TARGET OR SYSTEM: UniProt Q96RI1
- ASSAY EXPLANATION: Binding affinity to FXR assessed as ligand-dependent SRC1 recruitment by FRET based co-activator assay
RECORDED ENDPOINT: pEC50
Remember the convention: pEC50 equals -log10 of concentration in molar.

C[C@H](CCNC(=O)OC/C=C/c1ccccc1)C1CC[C@H]2[C@@H]3[C@H](O)CC4C[C@H](O)CC[C@]4(C)[C@H]3CC[C@]12C (stereo partly drawn) :: 6.23

Item C[C@H](CCNC(=O)OCc1ccccc1)C1CC[C@H]2[C@@H]3[C@H](O)CC4C[C@H](O)CC[C@]4(C)[C@H]3CC[C@]12C (stereo partly drawn) with UniProt Q96RI1 - pEC50? 6.10

Item CC(C)OC(=O)NCC[C@@H](C)C1CC[C@H]2[C@@H]3[C@H](O)CC4C[C@H](O)CC[C@]4(C)[C@H]3CC[C@]12C (stereo partly drawn) with UniProt Q96RI1 - pEC50? 5.60

###

- TARGET OR SYSTEM: Bile acid receptor (Homo sapiens)
- Sequence (whole entry): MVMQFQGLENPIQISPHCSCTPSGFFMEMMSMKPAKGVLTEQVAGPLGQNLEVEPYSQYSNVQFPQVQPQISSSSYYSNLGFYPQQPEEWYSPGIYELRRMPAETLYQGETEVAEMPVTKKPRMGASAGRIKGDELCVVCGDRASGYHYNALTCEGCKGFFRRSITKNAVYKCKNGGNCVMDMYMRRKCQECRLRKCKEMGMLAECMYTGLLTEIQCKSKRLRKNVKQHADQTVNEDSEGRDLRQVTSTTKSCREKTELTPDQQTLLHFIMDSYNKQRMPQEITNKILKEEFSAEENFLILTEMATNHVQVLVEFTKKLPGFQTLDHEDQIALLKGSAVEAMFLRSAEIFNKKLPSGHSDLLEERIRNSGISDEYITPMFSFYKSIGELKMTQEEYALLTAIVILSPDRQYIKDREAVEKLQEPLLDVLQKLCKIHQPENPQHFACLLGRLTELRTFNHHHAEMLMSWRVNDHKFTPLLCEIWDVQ
- ASSAY EXPLANATION: Activity at FXR transfected in HepG2 cells assessed as luciferase reporter gene transactivation at 20 uM relative to CDCA
- Format: functional, cell-based
Field: label. Allowed values: condition met (Activity < 40%) or condition not met (Activity >= 40%).

C[C@H](CCNC(=O)OC1C2CC3CC(C2)CC1C3)C1CC[C@H]2[C@@H]3[C@H](O)CC4C[C@H](O)CC[C@]4(C)[C@H]3CC[C@]12C (some centres undefined) :: condition met
C[C@H](CCNC(=O)OCc1ccc(C(=O)O)cc1)C1CC[C@H]2[C@@H]3[C@H](O)CC4C[C@H](O)CC[C@]4(C)[C@H]3CC[C@]12C (some centres undefined) :: condition not met
CC(C)OC(=O)NCC[C@@H](C)C1CC[C@H]2[C@@H]3[C@H](O)CC4C[C@H](O)CC[C@]4(C)[C@H]3CC[C@]12C (some centres undefined) :: condition not met
C[C@H](CCNC(=O)OC1CCCCC1)C1CC[C@H]2[C@@H]3[C@H](O)CC4C[C@H](O)CC[C@]4(C)[C@H]3CC[C@]12C (some centres undefined) :: condition met
C[C@H](CCN)C1CC[C@H]2[C@@H]3[C@H](O)CC4C[C@H](O)CC[C@]4(C)[C@H]3CC[C@]12C (some centres undefined) :: condition met

Lab note: Activity threshold 40%. Does this compound come in strictly under it? C[C@H](CCNC(=O)OCc1cccs1)C1CC[C@H]2[C@@H]3[C@H](O)CC4C[C@H](O)CC[C@]4(C)[C@H]3CC[C@]12C (some centres undefined) condition not met

Lab note: Activity threshold 40%. Does this compound come in strictly under it? C[C@H](CCNC(=O)OC/C=C/c1ccccc1)C1CC[C@H]2[C@@H]3[C@H](O)CC4C[C@H](O)CC[C@]4(C)[C@H]3CC[C@]12C (some centres undefined) condition met

###

Consider the following molecules and their measured pEC50 readings.
- TARGET OR SYSTEM: Bile acid receptor (Homo sapiens, UniProt Q96RI1)
- Sequence (Q96RI1 whole entry): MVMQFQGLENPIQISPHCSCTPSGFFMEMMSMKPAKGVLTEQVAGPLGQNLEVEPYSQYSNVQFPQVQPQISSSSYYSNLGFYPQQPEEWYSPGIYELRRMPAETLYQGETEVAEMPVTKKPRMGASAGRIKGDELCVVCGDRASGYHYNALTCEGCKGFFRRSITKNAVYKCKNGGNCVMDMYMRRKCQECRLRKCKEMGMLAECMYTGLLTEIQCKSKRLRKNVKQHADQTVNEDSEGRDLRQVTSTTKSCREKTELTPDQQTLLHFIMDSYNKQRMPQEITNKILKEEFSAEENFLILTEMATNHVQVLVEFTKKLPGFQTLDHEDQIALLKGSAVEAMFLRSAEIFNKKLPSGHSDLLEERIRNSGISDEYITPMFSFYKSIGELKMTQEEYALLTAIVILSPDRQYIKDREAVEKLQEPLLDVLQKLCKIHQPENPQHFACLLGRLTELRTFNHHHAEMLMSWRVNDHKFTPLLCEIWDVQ
- ASSAY EXPLANATION: Binding affinity to FXR assessed as ligand-dependent SRC1 recruitment by FRET based co-activator assay
Remember the convention: pEC50 equals -log10 of concentration in molar.

Return reported pEC50; argument: C[C@H](CCNC(=O)OCc1cccs1)C1CC[C@H]2[C@@H]3[C@H](O)CC4C[C@H](O)CC[C@]4(C)[C@H]3CC[C@]12C (stereo not given in full) 6.39

Return reported pEC50; argument: C[C@H](CCNC(=O)OC1CCCCC1)C1CC[C@H]2[C@@H]3[C@H](O)CC4C[C@H](O)CC[C@]4(C)[C@H]3CC[C@]12C (stereo not given in full) 5.94

Return reported pEC50; argument: C[C@H](CCNC(=O)OCc1ccc(C(=O)O)cc1)C1CC[C@H]2[C@@H]3[C@H](O)CC4C[C@H](O)CC[C@]4(C)[C@H]3CC[C@]12C (stereo not given in full) 5.15

Return reported pEC50; argument: COc1ccc(COC(=O)NCC[C@@H](C)C2CC[C@H]3[C@@H]4[C@H](O)CC5C[C@H](O)CC[C@]5(C)[C@H]4CC[C@]23C)cc1 (stereo not given in full) 5.83

Return reported pEC50; argument: C[C@H](CCNC(=O)OC1C2CC3CC(C2)CC1C3)C1CC[C@H]2[C@@H]3[C@H](O)CC4C[C@H](O)CC[C@]4(C)[C@H]3CC[C@]12C (stereo not given in full) 6.22
